Reference for the values: patent US9862716B2

target: human TrkA receptor (Homo sapiens); test: DiscoverX PathHunter TrkA functional assay (NGF-stimulated U2OS cells); conditions: U2OS cells expressing human TrkA-PK, Shc1-EA and p75NTR; compound 1 h, then NGF at ~80% of maximal response for 3 h; luminescence
Sequence (P04629 33-796): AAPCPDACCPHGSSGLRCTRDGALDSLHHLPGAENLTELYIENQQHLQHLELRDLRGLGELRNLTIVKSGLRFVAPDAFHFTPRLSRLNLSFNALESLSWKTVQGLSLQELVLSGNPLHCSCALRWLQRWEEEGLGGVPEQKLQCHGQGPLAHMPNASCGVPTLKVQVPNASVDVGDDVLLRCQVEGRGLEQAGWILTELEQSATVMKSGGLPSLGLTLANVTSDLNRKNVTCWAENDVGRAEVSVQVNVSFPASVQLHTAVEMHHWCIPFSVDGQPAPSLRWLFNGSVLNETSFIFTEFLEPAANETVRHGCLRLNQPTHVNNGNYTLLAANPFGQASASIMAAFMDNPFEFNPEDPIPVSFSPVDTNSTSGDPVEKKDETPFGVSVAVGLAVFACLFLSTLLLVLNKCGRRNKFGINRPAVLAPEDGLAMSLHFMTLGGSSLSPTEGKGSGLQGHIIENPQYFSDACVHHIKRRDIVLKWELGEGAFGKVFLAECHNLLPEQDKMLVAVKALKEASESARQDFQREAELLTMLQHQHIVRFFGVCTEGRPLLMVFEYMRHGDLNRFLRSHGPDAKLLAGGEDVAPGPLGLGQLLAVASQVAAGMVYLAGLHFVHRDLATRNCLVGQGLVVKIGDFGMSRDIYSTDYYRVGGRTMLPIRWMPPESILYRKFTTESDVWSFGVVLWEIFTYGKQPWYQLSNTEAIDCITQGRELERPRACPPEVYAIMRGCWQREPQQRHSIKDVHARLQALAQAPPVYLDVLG
ASSAY_METRIC: IC50 (nM)

>  <COMPOUND>
CC(O)c1ccn2c(NC(=O)c3cc(-c4ccn(C)n4)c(C(F)(F)F)cc3F)c(-c3ccccc3)nc2c1 (single isomer, unassigned) [Compound 55]

>  <DISPLAY_UNIT>
nM

>  <QUANTITATIVE_READOUT>
0.37

$$$$

A = CC(O)c1ccc2[nH]c(-c3ccccc3)c(NC(=O)c3cc(-c4ccn(C)n4)c(C(F)(F)F)cc3F)c2c1 (single isomer, unassigned) [Compound 113]
B = O=C(Nc1c(-c2ccccc2)nc2ccccn12)c1ccc(OC(F)(F)F)cc1 [Compound 1]
Sort A and B by IC50 descending and give the first. Respond using the label that marks the chosen record. B

1 = Cn1ccc(-c2cc(C(=O)Nc3c(-c4ccccc4)nn4ccc(C(C)(C)O)cc34)c(F)cc2C(F)(F)F)n1 [Compound 103]
2 = Cc1cc(C(F)(F)F)c(-c2ccn(C)n2)cc1C(=O)Nc1c(-c2ccccc2)nc2cc([C@@H](C)O)ccn12 [Compound 93]
Which is greater in IC50, the first item 1 or the second item 2 ? Lab note: record the label of whichever item you select. 2
(2: 4.7 nM, 1: 0.94 nM)

P = NC(=O)c1ccc2[nH]c(-c3ccccc3)c(NC(=O)c3cc(-c4ncccn4)c(C(F)(F)F)cc3F)c2c1 [Compound 92]
Q = C[C@@H](O)c1ccn2c(NC(=O)c3ccc(C(F)(F)F)c(-c4ccn(C)n4)c3)c(-c3ccccc3)nc2c1 (single isomer, unassigned) [Compound 42]
For the pair P and Q , which entry has the numerically smaller recorded IC50? Pick one and reply with its label. Q

---

target: human TrkA receptor (Homo sapiens); experiment: DiscoverX PathHunter TrkA functional assay (NGF-stimulated U2OS cells); details: U2OS cells expressing human TrkA-PK, Shc1-EA and p75NTR; compound 1 h, then NGF at ~80% of maximal response for 3 h; luminescence
ASSAY_METRIC: IC50 (nM)

>  <MOLECULE>
CC(C)(O)c1ccn2c(NC(=O)c3ccc(C(F)(F)F)c(-c4ncccn4)c3)c(-c3ccccc3)nc2c1

>  <DISPLAY_UNIT>
nM

>  <QUANTITATIVE_READOUT>
7.9

$$$$
>  <MOLECULE>
Cn1ccc(-c2cc(C(=O)Nc3c(-c4ccccc4)nc4cc(C(C)(C)O)ccn34)c(F)cc2C(F)(F)F)n1

>  <DISPLAY_UNIT>
nM

>  <QUANTITATIVE_READOUT>
0.45

$$$$
>  <MOLECULE>
Cc1nc(-c2nc3ccccn3c2NC(=O)c2ccc(C(F)(F)F)c(-c3ccn(C)n3)c2)co1

>  <DISPLAY_UNIT>
nM

>  <QUANTITATIVE_READOUT>
556

$$$$

1 = O=C(Nc1c(-c2ccccc2)nc2ccccn12)c1cc(-c2ncccn2)c(C(F)(F)F)cc1F
2 = Cn1ccc(-c2cc(C(=O)Nc3c(-c4ccccc4)nc4cc(CNS(C)(=O)=O)ccn34)ccc2C(F)(F)F)n1
// task: argmin of IC50 over [ 1 , 2 ] Selection: enter the item's label. 1
(1: 1.4 nM, 2: 3.1 nM)

1 = CC(O)c1ccn2nc(-c3ccccc3)c(NC(=O)c3ccc(C(F)(F)F)c(-c4ccn(C)n4)c3)c2c1 (single isomer, unassigned) [Compound 98]
2 = CC(O)c1ccn2nc(-c3ccccc3)c(NC(=O)c3cc(-c4ccn(C)n4)c(C(F)(F)F)cc3F)c2c1 (single isomer, unassigned) [Compound 106]
3 = CC(O)c1ccn2c(NC(=O)c3ccc(C(F)(F)F)c(-c4ccn(C(F)F)n4)c3)c(-c3ccccc3)nc2c1 (single isomer, unassigned) [Compound 78]
Would you mind ranking these molecules by ascending IC50? // respond by listing labels in the order requested 2, 1, 3

I = Cn1ccc(-c2cc(C(=O)Nc3c(-c4ccccc4)nc4ncccn34)c(Cl)cc2C(F)(F)F)n1
II = Cn1ccc(-c2cc(C(=O)Nc3c(-c4ccccc4)nc4ccccn34)c(O)cc2C(F)(F)F)n1
III = Cc1nc(-c2nc3ccccn3c2NC(=O)c2ccc(C(F)(F)F)c(-c3ccn(C)n3)c2)cs1
IV = COc1ccn2c(NC(=O)c3cc(-c4ncccn4)c(C(F)(F)F)cc3F)c(-c3ccccc3)nc2c1
Sort by IC50, descending. Record the ranking as a list of labels in the requested order. II, III, I, IV
(II: 477 nM, III: 14 nM, I: 2.8 nM, IV: 1.7 nM)

A = Cc1cnn(-c2nc3ccccn3c2NC(=O)c2ccc(C(F)(F)F)c(-c3ccn(C)n3)c2)c1
B = C[C@H](O)c1ccn2c(NC(=O)c3ccc(C(F)(F)F)c(-c4ccn(C)n4)c3)c(-c3ccccc3)nc2c1
C = Cn1ccc(-c2cc(C(=O)Nc3c(-c4ccccc4)nc4cc(C(O)CO)ccn34)ccc2C(F)(F)F)n1 (single isomer, unassigned)
Order field: IC50 | Direction: descending (largest first) The response must list the labels following the requested ordering. A, B, C
(A: 17 nM, B: 0.96 nM, C: 0.51 nM)
